assay.summary: qHTS for Inhibitors of human tyrosyl-DNA phosphodiesterase 1 (TDP1): qHTS in cells in presence of CPT; note: nearly all actives have a fitted effect of over 55% in size
condition.info: chicken DT40 Tdp1-/-;hTDP1 cells + 20 nM CPT, ATP luminescence, 48 h; series mostly up to 46.2 µM
Protocol: Human tyrosyl-DNA phosphodiesterase 1 (TDP1) is a novel repair gene, and we propose to use it as a new target for anticancer drug development. […] For the primary screen, Tdp1-/-;hTDP1 cells will be exposed to small molecules in the presence or absence of CPT, and their growth kinetics will be evaluated after 48 hours by measuring ATP activity. […] The hit compounds will then be evaluated in the presence or absence of CPT using Tdp1-/- cells. […]
The whole screen tested about 420,000 compounds, of which about 50,000 (12%) were called active. Not shown: some 26% with an inconclusive outcome. Calls come from the whole dose curve; as a rule, active = well fitted inhibition curve with a large enough effect; inconclusive = small, poorly fitted or top-dose-only effect; inactive = flat fitted curve, though single readings scatter. The entries come from a sample that favours actives as a whole.
Return exactly one item of active, inactive

>>> assigned_label("O=C(Nc1cccc(F)c1)N1CC2(CCN(C(=O)c3cnccn3)CC2)C1")
"inactive"
>>> assigned_label("C=CCNCCCCOc1ccccc1")
"inactive"
>>> assigned_label("COc1ccc(-n2c(-c3ccc(Cl)cc3)n[nH]c2=S)c(OC)c1")
"inactive"
>>> assigned_label("CC1Cn2c(nnc2-c2cccs2)S1 (configuration not stated)")
"inactive"
>>> assigned_label("CNC(=O)Nc1cc(C(C)(C)C)no1")
"active"

For the next question, use this molecule.
Test call, this molecule: "COc1ccc(N2CCN(C(C)=C3C(=O)c4ccccc4C3=O)CC2)cc1"
inactive
